Values from patent US11566022B2

Target: HiBit-WIZ fusion protein (Homo sapiens, UniProt O95785+Q96SW2)
Sequence (O95785 whole entry, the tested form may be a part): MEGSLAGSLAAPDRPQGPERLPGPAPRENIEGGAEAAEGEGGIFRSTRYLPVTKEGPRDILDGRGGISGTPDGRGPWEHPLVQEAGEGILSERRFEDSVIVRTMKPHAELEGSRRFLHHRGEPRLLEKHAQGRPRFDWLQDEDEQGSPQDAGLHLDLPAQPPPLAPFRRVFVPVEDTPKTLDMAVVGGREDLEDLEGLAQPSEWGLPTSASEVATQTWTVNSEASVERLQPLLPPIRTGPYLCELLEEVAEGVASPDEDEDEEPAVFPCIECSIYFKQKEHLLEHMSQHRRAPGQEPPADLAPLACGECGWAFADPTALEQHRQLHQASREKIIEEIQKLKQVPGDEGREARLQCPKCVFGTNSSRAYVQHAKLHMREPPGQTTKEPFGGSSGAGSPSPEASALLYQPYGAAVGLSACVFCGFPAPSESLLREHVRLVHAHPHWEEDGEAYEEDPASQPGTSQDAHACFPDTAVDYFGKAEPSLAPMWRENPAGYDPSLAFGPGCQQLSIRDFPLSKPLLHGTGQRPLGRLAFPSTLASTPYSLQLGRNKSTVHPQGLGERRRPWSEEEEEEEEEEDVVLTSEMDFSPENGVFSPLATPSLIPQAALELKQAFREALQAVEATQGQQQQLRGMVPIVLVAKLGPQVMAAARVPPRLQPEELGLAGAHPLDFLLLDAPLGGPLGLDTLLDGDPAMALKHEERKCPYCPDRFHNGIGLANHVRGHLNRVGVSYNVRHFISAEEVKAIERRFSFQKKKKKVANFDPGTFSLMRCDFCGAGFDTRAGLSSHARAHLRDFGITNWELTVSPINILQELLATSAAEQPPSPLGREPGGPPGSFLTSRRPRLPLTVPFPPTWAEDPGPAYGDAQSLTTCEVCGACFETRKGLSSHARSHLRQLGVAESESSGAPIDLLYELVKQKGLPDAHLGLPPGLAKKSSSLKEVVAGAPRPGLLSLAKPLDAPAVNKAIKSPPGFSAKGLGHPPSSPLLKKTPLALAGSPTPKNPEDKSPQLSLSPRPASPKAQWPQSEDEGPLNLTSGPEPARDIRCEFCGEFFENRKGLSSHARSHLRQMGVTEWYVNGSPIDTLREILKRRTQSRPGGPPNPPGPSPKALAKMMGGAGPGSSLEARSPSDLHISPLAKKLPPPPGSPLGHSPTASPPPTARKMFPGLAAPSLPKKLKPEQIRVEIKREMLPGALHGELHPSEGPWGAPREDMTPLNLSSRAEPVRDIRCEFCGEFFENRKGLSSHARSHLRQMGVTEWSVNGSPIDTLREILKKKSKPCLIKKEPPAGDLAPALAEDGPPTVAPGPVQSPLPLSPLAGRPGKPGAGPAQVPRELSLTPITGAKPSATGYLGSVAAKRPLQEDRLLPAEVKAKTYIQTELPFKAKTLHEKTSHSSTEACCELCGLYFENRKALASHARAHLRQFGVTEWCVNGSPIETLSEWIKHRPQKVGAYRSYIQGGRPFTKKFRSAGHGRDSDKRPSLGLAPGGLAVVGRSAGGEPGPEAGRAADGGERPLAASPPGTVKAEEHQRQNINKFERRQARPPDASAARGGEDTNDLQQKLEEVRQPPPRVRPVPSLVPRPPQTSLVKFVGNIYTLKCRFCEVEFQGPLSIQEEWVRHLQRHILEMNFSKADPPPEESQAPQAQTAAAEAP
Sequence (Q96SW2 whole entry, the tested form may be a part): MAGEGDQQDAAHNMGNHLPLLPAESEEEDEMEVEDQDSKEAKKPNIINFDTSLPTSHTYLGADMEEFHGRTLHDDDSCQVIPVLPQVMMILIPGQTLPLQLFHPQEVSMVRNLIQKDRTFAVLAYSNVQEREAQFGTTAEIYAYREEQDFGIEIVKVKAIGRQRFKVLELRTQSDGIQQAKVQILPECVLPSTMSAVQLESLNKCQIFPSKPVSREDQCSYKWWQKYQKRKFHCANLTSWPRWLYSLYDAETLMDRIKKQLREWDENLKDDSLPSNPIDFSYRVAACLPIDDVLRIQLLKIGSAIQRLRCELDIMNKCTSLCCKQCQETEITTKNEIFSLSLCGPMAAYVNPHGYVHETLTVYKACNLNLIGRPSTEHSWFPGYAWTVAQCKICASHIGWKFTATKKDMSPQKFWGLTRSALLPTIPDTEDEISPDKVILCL
Sequence (Q16531 whole entry partner, the tested form may be a part): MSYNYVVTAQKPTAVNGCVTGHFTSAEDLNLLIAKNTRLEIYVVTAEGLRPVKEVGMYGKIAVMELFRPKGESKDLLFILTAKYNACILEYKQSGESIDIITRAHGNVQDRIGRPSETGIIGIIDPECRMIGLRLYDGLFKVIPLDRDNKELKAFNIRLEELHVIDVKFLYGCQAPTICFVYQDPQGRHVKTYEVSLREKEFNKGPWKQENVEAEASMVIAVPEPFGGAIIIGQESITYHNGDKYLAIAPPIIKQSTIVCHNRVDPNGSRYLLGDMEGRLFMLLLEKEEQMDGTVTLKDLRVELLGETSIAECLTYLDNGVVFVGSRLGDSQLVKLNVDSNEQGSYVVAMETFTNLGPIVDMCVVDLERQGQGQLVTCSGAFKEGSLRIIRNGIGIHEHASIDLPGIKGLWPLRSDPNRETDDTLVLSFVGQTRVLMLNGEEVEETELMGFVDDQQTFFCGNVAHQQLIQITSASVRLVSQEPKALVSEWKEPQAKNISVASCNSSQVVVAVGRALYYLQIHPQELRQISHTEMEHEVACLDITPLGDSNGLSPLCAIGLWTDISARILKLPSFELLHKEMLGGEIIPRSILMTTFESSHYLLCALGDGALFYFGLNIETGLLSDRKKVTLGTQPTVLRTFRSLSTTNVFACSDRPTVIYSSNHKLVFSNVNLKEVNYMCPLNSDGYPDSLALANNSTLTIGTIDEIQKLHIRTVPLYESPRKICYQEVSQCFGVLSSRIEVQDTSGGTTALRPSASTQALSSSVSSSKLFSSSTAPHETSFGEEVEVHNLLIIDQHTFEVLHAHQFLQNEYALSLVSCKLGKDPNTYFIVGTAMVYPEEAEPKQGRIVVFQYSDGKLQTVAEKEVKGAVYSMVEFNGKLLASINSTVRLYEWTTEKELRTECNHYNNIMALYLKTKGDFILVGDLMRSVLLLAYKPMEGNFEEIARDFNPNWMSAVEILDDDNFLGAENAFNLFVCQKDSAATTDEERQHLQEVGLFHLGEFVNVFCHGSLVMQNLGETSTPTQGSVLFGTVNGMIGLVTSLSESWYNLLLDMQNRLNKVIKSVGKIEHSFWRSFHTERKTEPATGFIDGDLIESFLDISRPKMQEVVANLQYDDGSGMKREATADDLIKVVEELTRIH
Experiment: Quantification of WIZ protein levels in HiBit tag fusion protein assay (WIZ HiBit assay in 293T cells)
Format: cell-based
Conditions: HEK-293T, DMSO-normalized, curve-fitted percentage of WIZ-HiBit remaining at 25 uM; 293T cells; read-out: WIZ Amax
metric name: remaining activity at up to 25 µM (%)

molecule: N#CC1(c2cc(C(=O)N3CCCC[C@H]3COc3ccc4c(c3)CN(C3CCC(=O)NC3=O)C4=O)ccn2)CC1 (stereo partly shown) [Compound I-72y]
remaining activity at up to 25 µM / %: 97.1

molecule: Cn1ccc2c(CN3CCCC[C@@H]3COc3ccc4c(c3)CN(C3CCC(=O)NC3=O)C4=O)cccc21 (stereo partly shown) [Compound I-50dy]
remaining activity at up to 25 µM / %: 3.4

molecule: Cc1nc(C(=O)N2CCCC[C@H]2COc2ccc3c(c2)CN(C2CCC(=O)NC2=O)C3=O)c(C)s1 (stereo partly shown) [Compound I-72fp]
remaining activity at up to 25 µM / %: 90.5

molecule: O=C1CCC(N2Cc3cc(OC[C@H]4CCCCN4Cc4cccc5c4NCCO5)ccc3C2=O)C(=O)N1 (stereo partly shown) [Compound I-178]
remaining activity at up to 25 µM / %: 21.3

molecule: CC(C)c1cc(C(=O)N2CCCC[C@H]2COc2ccc3c(c2)CN(C2CCC(=O)NC2=O)C3=O)no1 (stereo partly shown) [Compound I-72cf]
remaining activity at up to 25 µM / %: 65

1. O=C1CCC(N2Cc3cc(OC[C@@H]4CCCCN4C(=O)c4cccc(Cn5cncn5)c4)ccc3C2=O)C(=O)N1 (stereo partly shown) [Compound I-72bi]
2. CCc1nc(C)c(CN2CCCC[C@@H]2COc2ccc3c(c2)CN(C2CCC(=O)NC2=O)C3=O)[nH]1 (stereo partly shown) [Compound I-50dh]
Of 1 and 2 , which shows the smaller remaining activity at up to 25 µM value? Give the label under which the chosen entry appears.
2
